- TARGET_ENTITY: T1, human GIP receptor (human) (UniProt P48546)
- T1 sequence (looked up): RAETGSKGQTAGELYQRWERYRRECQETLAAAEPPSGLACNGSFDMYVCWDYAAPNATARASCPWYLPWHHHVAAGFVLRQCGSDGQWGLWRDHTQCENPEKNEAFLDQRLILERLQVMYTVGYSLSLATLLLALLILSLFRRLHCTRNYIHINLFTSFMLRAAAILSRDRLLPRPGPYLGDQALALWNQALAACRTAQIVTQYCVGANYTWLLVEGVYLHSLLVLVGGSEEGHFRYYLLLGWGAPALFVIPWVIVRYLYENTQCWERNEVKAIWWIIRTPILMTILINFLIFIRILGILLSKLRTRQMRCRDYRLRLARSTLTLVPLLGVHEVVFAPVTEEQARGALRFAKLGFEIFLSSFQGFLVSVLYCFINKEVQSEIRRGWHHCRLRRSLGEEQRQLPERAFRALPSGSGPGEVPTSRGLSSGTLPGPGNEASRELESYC
- MEASUREMENT_PROTOCOL: cell-based or functional assay
QUANTITY_NAME: log10 of cAMP Rel EC50 (in the presence of 1% HSA) (log10 of the value in nM)
Transform log10 | Measure cAMP Rel EC50 (in the presence of 1% HSA) | Unit nM

Field: example entries. Status: answers known.
BINDER	REPORTED_MEASUREMENT
YXQGTXTSDXSIXLDKKAQXAFIEYLQEGGPSSGEPPPSGSEE (non-natural residues; Lys acylated C18 diacid via γGlu2; C-term amide; synthetic construct; SITE 2: note = 2-Aminoisobutyric Acid; SITE 6: note = alpha-methyl-2-fluoro-L-phenylalanine; SITE 10: note = 3-(4-Pyridyl)-L-alanine; SITE 13: note = alpha-methyl-leucine; SITE 17: note = Lysine is chemically modified through conjugation of the epsilon-amino group of the Lysine) [Example 634]	0.17
YXQGTFTSDXXQXLDXKAQXQFIQXLIEXGPSSGAPPPSGGGE (not fully specified; non-natural residues; Lys acylated γGlu-C18 diacid; C-terminal amide; synthetic construct; SITE 2: note = 2-Aminoisobutyric Acid; SITE 10: note = 3-(4-Pyridyl)-L-alanine; SITE 11: note = alpha-methyl-L-serine; SITE 13: note = alpha-methyl-leucine; SITE 16: note = L-ornithine; SITE 17: note = Lysine is chemically modified through conjugation of the epsilon-amino group) [Example 1186]	0.50
YXQGTFTSDFSKXLDKKAQXAFIEYLLAGGPSSGEPPPGEG (synthetic construct; SITE 2: note = 2-Aminoisobutyric Acid; SITE 13: note = alpha-methyl-leucine; SITE 17: note = Lysine is chemically modified through conjugation of the epsilon-amino group of the Lysine side chain with (2-[2-(2-Amino-ethoxy)-ethoxy]-acetyl)-(gamma-Glu)-CO-(CH2) 18-CO2H; SITE 20: n) [Example 31]	1.80
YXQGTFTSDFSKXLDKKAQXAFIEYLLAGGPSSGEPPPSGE (synthetic construct; SITE 2: note = 2-Aminoisobutyric Acid; SITE 13: note = alpha-methyl-leucine; SITE 17: note = Lysine is chemically modified through conjugation of the epsilon-amino group of the Lysine side chain with (2-[2-(2-Amino-ethoxy)-ethoxy]-acetyl)-(gamma-Glu)-CO-(CH2) 18-CO2H; SITE 20: n) [Example 2]	1.88
YXQGTXTSDXXIXLDXKAQXEFIEXLVEGGPSSGAPPPTGE (not fully specified; non-natural residues; lipidated Lys; C-terminal amide; synthetic construct; SITE 2: note = 2-Aminoisobutyric Acid; SITE 6: note = alpha-methyl-2-fluoro-L-phenylalanine; SITE 10: note = 3-(4-Pyridyl)-L-alanine; SITE 11: note = alpha-methyl-L-serine; SITE 13: note = alpha-methyl-leucine; SITE 16: note = L-ornithine; SITE 17: note = Lysine is chemically mo) [Example 1152]	0.08
YXQGTXTSDXXIXLDXKAQXEFIEXLIEGGPSSGEPPPSGSE (non-natural residues; acylated Lys; C-terminal amide; synthetic construct; SITE 2: note = 2-Aminoisobutyric Acid; SITE 6: note = alpha-methyl-2-fluoro-L-phenylalanine; SITE 10: note = 3-(4-Pyridyl)-L-alanine; SITE 11: note = alpha-methyl-L-serine; SITE 13: note = alpha-methyl-leucine; SITE 16: note = L-ornithine; SITE 17: note = Lysine is chemically mo) [Example 1179]	-0.24

Query binder follows.
Identify log10 of cAMP Rel EC50 (in the presence of 1% HSA) associated with the binder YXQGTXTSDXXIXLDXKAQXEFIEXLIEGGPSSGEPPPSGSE (non-natural residues, acylated Lys ((γGlu)2-C18 diacid), C-terminal amide; synthetic construct; SITE 2: note = 2-Aminoisobutyric Acid; SITE 6: note = alpha-methyl-L-phenylalanine; SITE 10: note = 3-(4-Pyridyl)-L-alanine; SITE 11: note = alpha-methyl-L-serine; SITE 13: note = alpha-methyl-leucine; SITE 16: note = L-ornithine; SITE 17: note = Lysine is chemically modified th) [Example 1173] -0.12

Hey, just so you know, these numbers are from patent US20240270821A1.
